# credit: ChEMBL document CHEMBL2434874

- Test system: A549
- test protocol: Cytotoxicity against human A549 cells expressing wild type p53 by MTT assay
- Type: functional, cell-based
- condition info: Homo sapiens, A549; read-out: IC50
assay endpoint: IC50

smiles_entry=COc1cc(OC)c2c(C)c(C(=O)Nc3ccccc3)oc2c1C(N)=O value_reported="< 9.3 µM"

From here, focus on the item given below.
Let me know recorded IC50 for COc1cc(OC)c2c(C)c(C(=O)Nc3ccccn3)oc2c1C(N)=O , thanks. > 84.4 µM

====

In this section we review reported IC50 values for a set of molecules.
- Test system: A549
- test protocol: Cytotoxicity against human A549 cells expressing wild type p53 by MTT assay
- Assay type: functional, cell-based
- condition info: Homo sapiens, A549; read-out: IC50

smiles_entry=Cc1c(C=O)oc2cc(OCc3ccccc3)cc(OCc3ccccc3)c12 value_reported="> 80.6 µM"
smiles_entry=CCOC(=O)c1oc2cc(OCc3ccccc3)cc(OCc3ccccc3)c2c1C value_reported="> 72 µM"
smiles_entry=CCOC(=O)c1oc2c(Br)c(OC)cc(OC)c2c1C value_reported="> 87.4 µM"
smiles_entry=CCCNC(=O)c1oc2c(C(N)=O)c(OC)cc(OC)c2c1C value_reported="> 93.6 µM"

Let me know recorded IC50 for CCOC(=O)c1oc2c(C(N)=O)c(OCc3ccccc3)cc(OCc3ccccc3)c2c1C , thanks. < 7.2 µM

Let me know recorded IC50 for COc1cc(OC)c2c(C)c(C(=O)Nc3ccncc3)oc2c1C(N)=O , thanks. < 9.3 µM
